# Tested on: T-47D breast
# assay_name: NCI-60 one-dose screen, 48 h
# condition_set: 10 µM unless noted
This is part of a sample that, as a whole, favours compounds with a hit. Of some 83,000 tested, about 20% had one in any assay. Calls of active or inactive are those of the source. How the source made its calls: active means growth percent below 10; inactive means the rest.
Just give me one of these, please: active, inactive

Please review the following examples before continuing.
>>> group_label("ClCc1ccc(Cl)c(Cl)c1")
"inactive"
>>> group_label("CCCCS(=O)(=O)Cl")
"inactive"
>>> group_label("C[C@]12CCc3sc(Nc4ccc(F)cc4)nc3C1=CC[C@@H]1[C@@H]2CC[C@]2(C)C(=O)CC[C@@H]12")
"inactive"
>>> group_label("O=[P+](O)c1cccnc1")
"inactive"
>>> group_label("O=c1c2ccccc2nc(-c2ccccc2Cl)n1-c1nnc(C(F)(F)F)s1")
"inactive"
>>> group_label("O=P1(N(CCCl)CCCl)NCCCO1 (stereo not drawn)")
"inactive"
>>> group_label("COc1ccc(N(CC(=O)NCCC[Te]c2ccccc2)C(=O)c2ccccc2)cc1")
"inactive"
>>> group_label("CN1CCC2(CC1)C(C#N)C(=O)NC(=O)C2C#N (stereo not drawn)")
"inactive"
>>> group_label("O=C(Cc1ccccc1)NC(O)C(Cl)(Cl)Cl (stereo not drawn)")
"inactive"
>>> group_label("O=[N+]([O-])c1cc(Cl)c(Cl)c([N+](=O)[O-])c1Cl")
"active"

// query Given O=C1CCCCC1CN1CCCCC1 (stereo not drawn) , state the outcome it received in this test.
// result inactive

// query Given CC1=C(C)C(=O)O[C@@H]([C@](C)(O)[C@]2(O)CC[C@@]3(O)[C@@H]4C[C@H]5O[C@]56CC=CC(=O)[C@]6(C)[C@H]4CC[C@]23C)C1 , state the outcome it received in this test.
// result active

// query Given CCOP(=O)(OCC)C(=O)N(CC)CC , state the outcome it received in this test.
// result inactive

// query Given Nc1c(Cl)c(Cl)nc(C(=O)O)c1Cl , state the outcome it received in this test.
// result inactive

// query Given CC[C@H](C)[C@H](NC(=O)[C@H]1CCCCN1C)C(=O)N(C)[C@H](C[C@@H](OC(C)=O)c1nc(C(=O)N[C@@H](Cc2ccccc2)C[C@H](C)C(=O)O)cs1)C(C)C , state the outcome it received in this test.
// result inactive

// query Given CC[C@@H](C)C(=O)O[C@H]1[C@H](O)[C@H]2[C@@H](CN3C[C@@H](C)CC[C@H]3[C@@]2(C)O)[C@@H]2C[C@]34O[C@]5(O)[C@@H](OC(=O)[C@@](C)(O)CC)CC[C@@]3(C)[C@@H]5[C@@H](OC(C)=O)[C@@H](OC(C)=O)[C@H]4[C@@]21O , state the outcome it received in this test.
// result inactive

// query Given Nc1ccc(S(=O)(=O)F)cc1 , state the outcome it received in this test.
// result inactive

// query Given O=C(O)C(F)F , state the outcome it received in this test.
// result inactive

----------
# System: MDA-MB-231 breast
# assay_name: NCI-60 one-dose screen, 48 h
# condition_set: 10 µM unless noted
Compounds without any hit were thinned out: in the full panel of roughly 83,000, 20% have a hit. The source made the active and inactive calls. How the source made its calls: active means growth percent below 10; inactive means the rest.
Just give me one of these, please: label 1 = active, label 0 = inactive

Please review the following examples before continuing.
>>> group_label("OCCN=Cc1c[nH]c2ccccc12")
"label 0"
>>> group_label("CCCC(C)SP(=S)(SC(C)CCC)SC(C)CCC (configuration not stated)")
"label 0"

// query Given CC1(C)S[C@H]2CC[C@H]3OC(=O)[C@@H]1N23 , state the outcome it received in this test.
// result label 0

// query Given N#CC(N)c1ccccc1 (configuration not stated) , state the outcome it received in this test.
// result label 0

// query Given C[Se]/C=C1/C(=O)N(c2c(Cl)cccc2Cl)c2ccccc21 , state the outcome it received in this test.
// result label 0

// query Given COc1ccc2c(c1)c(-c1nc(-c3cn(C)c4ncccc34)cs1)cn2CCCCN1CCOCC1 , state the outcome it received in this test.
// result label 1

// query Given COc1ccc(C(C#N)C(C)=O)cc1 (configuration not stated) , state the outcome it received in this test.
// result label 0

----------
# Test system: COLO 205 colon
# assay_name: NCI-60 one-dose screen, 48 h
# condition_set: 10 µM unless noted
Compounds without any hit were thinned out: in the full panel of roughly 83,000, 20% have a hit. Calls of active or inactive are those of the source. The calls were made as follows: active = growth percent below 10; inactive = the rest.
Just give me one of these, please: active, inactive

Please review the following examples before continuing.
>>> group_label("Nc1cccnc1")
"inactive"
>>> group_label("CC(=O)Nc1nc2c(s1)C1=CC[C@H]3[C@@H]4CC[C@H](OC(C)=O)[C@@]4(C)CC[C@@H]3[C@@]1(C)CC2")
"inactive"
>>> group_label("CC1=C(C)C(=O)O[C@@H]([C@](C)(O)[C@]2(O)CC[C@@]3(O)[C@@H]4C[C@H]5O[C@]56CC=CC(=O)[C@]6(C)[C@H]4CC[C@]23C)C1")
"active"
>>> group_label("CC1=C([Te]c2ccccc2)C(=O)c2ccccc2C1=O")
"active"
>>> group_label("CC1OC(=O)C(C(C)C)NC(=O)C(C(C)C)OC(=O)C(C(C)C)NC(=O)C(C)OC(=O)C(C(C)C)NC(=O)C(C(C)C)OC(=O)C(C(C)C)NC(=O)C(C)OC(=O)C(C(C)C)NC(=O)C(C(C)C)OC(=O)C(C(C)C)NC1=O (stereo not drawn)")
"active"
>>> group_label("CCC(=O)C(CC(C)N1CCCCCC1)(c1ccccc1)c1ccccc1 (stereo not drawn)")
"inactive"
>>> group_label("COc1cc(-c2ccc(N)c(OC)c2)ccc1N")
"inactive"

Now consider the entry below.
// query Given CC/C(=C(\c1ccc(OCCN2CCOCC2)cc1)c1ccc(OC(=O)Cc2ccccc2)cc1)c1ccc(Cl)cc1 , state the outcome it received in this test.
// result inactive

----------
# System: A498 renal
# assay_name: NCI-60 one-dose screen, 48 h
# condition_set: 10 µM unless noted
This is part of a sample that, as a whole, favours compounds with a hit. Of some 83,000 tested, about 20% had one in any assay. Activity calls are given as the source filed them. How the source made its calls: active means growth percent below 10; inactive means the rest.
Just give me one of these, please: active, inactive

// query Given O=NN1CCCCC1 , state the outcome it received in this test.
// result inactive

// query Given CC[C@H](C)[C@H](NC(=O)CN(C)C)C(=O)N(C)[C@H](C[C@@H](OC(C)=O)c1nc(C(=O)NC23C4C5C2C2C3C4C52C(=O)OC)cs1)C(C)C (stereo not given in full) , state the outcome it received in this test.
// result active

// query Given CC[C@H](C)[C@H](NC(=O)[C@H]1CCCCN1C)C(=O)N(C)[C@H](C[C@@H](OC(C)=O)c1nc(C(=O)NC23C4C5C2C2C3C4C52C(=O)OC)cs1)C(C)C (stereo not given in full) , state the outcome it received in this test.
// result active

// query Given CCOC(=O)C1C(C=C(C)C)C1(C)C (stereo not given) , state the outcome it received in this test.
// result inactive

// query Given O=C(O)CNCP(=O)(O)O , state the outcome it received in this test.
// result inactive

----------
Reported growth values follow for various compounds
# Tested on: UACC-257 melanoma
# assay_name: NCI-60 one-dose screen, 48 h (100 = growth as untreated, 0 = no growth, -100 = all killed)
# condition_set: 10 µM unless noted
This is part of a sample that, as a whole, favours compounds with a hit. Of some 83,000 tested, about 20% had one in any assay.
Give your result in % as a bare value.

Some entries whose results are on file:
>>> test_value("C[C@]12CCc3sc(Nc4ccc(F)cc4)nc3C1=CC[C@@H]1[C@@H]2CC[C@]2(C)C(=O)CC[C@@H]12")
85.9
>>> test_value("O=C(NC1=NCC[Se]1)c1ccccc1O")
55.3
>>> test_value("C[C@]12CCC(=O)C[C@@H]1CC[C@@H]1[C@@H]2CC[C@]2(C)[C@@H](OC(=O)N(CCCl)N=O)CC[C@@H]12")
57.5
>>> test_value("CN1CCN(c2ccc(Cl)cc2)CC1")
84.4

In plain terms, COc1ccc(O)c2c(=O)c3c(OC)cc4c(c3oc12)[C@@H]1C=CO[C@@H]1O4 has a documented growth of 89.6

In plain terms, NC(N)=NC(N)=Nc1ccc(Cl)cc1 has a documented growth of 111

In plain terms, O=[N+]([O-])c1cc(Br)c(O)c(Br)c1 has a documented growth of 95.4

In plain terms, O=[P+](O)c1cccnc1 has a documented growth of 104

In plain terms, COc1ccc(C(C#N)C(C)=O)cc1 (stereo unspecified) has a documented growth of 93

In plain terms, CCC(Br)(CC)C(=O)NC(N)=O has a documented growth of 104

In plain terms, COC(=O)C1=CO[C@@H](C)[C@@H]2CN3CCc4c([nH]c5cc(OC)ccc45)[C@@H]3C[C@H]12 has a documented growth of 95.7

Data provenance: PubChem BioAssay (NCI)
